- assay.target: full-length B-Catenin (Uniprot ID P35222) (Homo sapiens, UniProt P35222)
- Construct: 65 nM full-length B-Catenin (Uniprot ID P35222)
- Sequence (P35222 whole entry): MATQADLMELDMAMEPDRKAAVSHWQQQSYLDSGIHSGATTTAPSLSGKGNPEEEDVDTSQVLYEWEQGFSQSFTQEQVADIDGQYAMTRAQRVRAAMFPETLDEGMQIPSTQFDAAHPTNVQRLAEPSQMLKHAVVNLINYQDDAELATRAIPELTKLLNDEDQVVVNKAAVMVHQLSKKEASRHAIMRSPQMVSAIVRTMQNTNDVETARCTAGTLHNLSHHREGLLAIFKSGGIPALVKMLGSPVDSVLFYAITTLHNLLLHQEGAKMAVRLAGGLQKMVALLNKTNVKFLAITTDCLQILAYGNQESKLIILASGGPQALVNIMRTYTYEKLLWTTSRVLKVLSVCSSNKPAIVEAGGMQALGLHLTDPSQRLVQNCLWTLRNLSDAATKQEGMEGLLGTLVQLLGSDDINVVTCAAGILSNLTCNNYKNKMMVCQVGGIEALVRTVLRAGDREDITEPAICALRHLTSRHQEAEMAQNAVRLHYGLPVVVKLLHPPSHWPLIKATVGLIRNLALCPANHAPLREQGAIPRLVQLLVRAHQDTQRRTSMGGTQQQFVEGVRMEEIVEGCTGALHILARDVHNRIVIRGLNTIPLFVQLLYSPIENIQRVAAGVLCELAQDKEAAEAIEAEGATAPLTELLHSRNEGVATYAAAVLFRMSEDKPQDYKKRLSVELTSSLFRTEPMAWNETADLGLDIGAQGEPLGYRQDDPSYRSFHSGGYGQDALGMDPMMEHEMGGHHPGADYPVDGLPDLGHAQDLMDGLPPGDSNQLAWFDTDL
- test.details: Alphascreen binding assay (beta-catenin / biotin-TCF4 10-53)
measured.attribute: pEC50
Lab note: report pEC50 as minus log10 of the concentration in molar units, number only.

# count of solved cases: 2
# molecule, pEC50
rows = [
    ("CC[C@H](C)[C@H](NC(=O)[C@H](CC(=O)O)NC(=O)[C@H](C)NC(C)=O)C(=O)N[C@]1(C)CCN(C)C(=O)OCC=CCCCCC[C@@](C)(C(=O)N[C@@H](Cc2ccccc2)C(=O)N[C@@H](Cc2c[nH]c3ccccc23)C(N)=O)NC(=O)[C@H](CCC(N)=O)NC(=O)[C@H](Cc2ccccc2)NC(=O)[C@H](C)NC(=O)[C@H](C)NC(=O)[C@H](CCC(=O)O)NC(=O)[C@H](CC(=O)O)NC1=O", 6.40),
    ("CC(=O)N1CCC[C@]12CC=CCCCC1(CCCC=CCCCCCC[C@@](C)(C(=O)N[C@@H](Cc3ccccc3)C(=O)N[C@@H](Cc3c[nH]c4ccccc34)C(=O)N[C@@H](CCC(N)=O)C(N)=O)NC(=O)[C@H](C(C)C)NC(=O)[C@H](Cc3ccccc3)NC(=O)[C@H](C)NC(=O)[C@H](C)NC(=O)[C@H](Cc3ccc4ccccc4c3)NC(=O)[C@H](CC(=O)O)NC1=O)NC(=O)[C@H](C)NC(=O)[C@H](CC(=O)O)NC2=O (stereo partly drawn)", 5.12),
]

# ---- query molecule ----
### Prompt Note pEC50 for the molecule shown: CC(=O)N1CCC[C@]12CC=CCCCC1(CCCC=CCCCCCC[C@@](C)(C(=O)N[C@@H](Cc3ccccc3)C(=O)N[C@@H](Cc3csc4ccccc34)C(=O)N[C@@H](C)C(N)=O)NC(=O)[C@H](CCC(N)=O)NC(=O)[C@H](Cc3ccccc3)NC(=O)[C@H](C)NC(=O)[C@H](C)NC(=O)[C@H](Cc3ccc4ccccc4c3)NC(=O)[C@H](CC(=O)O)NC1=O)NC(=O)[C@H](C)NC(=O)[C@H](CC(=O)O)NC2=O (stereo partly drawn)
### Response 5.72
